In this section we review reported viability values for a set of compounds.
assay: compounds raising F508del-CFTR protein level – cell-based, HeLa F508del-CFTR, immunofluorescence, viability, primary screen (AID 1224863); settings: immunofluorescence total CFTR, 24 h, stronger effect = higher value; measured here: primary viability 10 ug/mL, library dosed in µg/mL unless noted
Hit rate of the full screen: of about 10,000 compounds, about 15 (0.1%) were called active. These entries were drawn from the full list.

Compound: CCOC(=O)C1SC(SCc2cc(C(=O)OC)c(C)o2)=NC1=O (stereo unspecified)
viability (%): 99
--
Compound: O=S(=O)(Nc1ccc(Cl)c(S(=O)(=O)N2CCOCC2)c1)c1ccc2ccccc2c1
viability (%): 93
--
Compound: Cn1ccnc1COc1ccc(C(=O)O)cc1
viability (%): 89
--
Compound: c1ccc2c(c1)ncn2CN1CCN(Cc2csc3ccccc23)CC1
viability (%): 107
--
Compound: Cn1cc(C#N)c(=O)n(CC(=O)Nc2sccc2C(N)=O)c1=O
viability (%): 104
--
Compound: Cc1nn(Cc2ccccc2Cl)c(C)c1CN(C)c1ccc2nnnn2n1
viability (%): 101
--
Compound: O=c1c2ccccc2nnn1COc1ccccc1Cl
viability (%): 116
--
Compound: CN(CC(=O)NC(=O)NCCC1=CCCCC1)Cc1ccc(Cl)s1
viability (%): 85
--
Compound: CCCCOCCCNS(=O)(=O)c1ccc(S(=O)(=O)C(F)F)cc1
viability (%): 80
--
Compound: CC(C)N1C(=O)c2ccc(C(=O)Nc3ccc(I)cc3)cc2S1(=O)=O
viability (%): 92
--
Compound: O=C1C2CCCCC2C(=O)N1CC(O)COCc1ccc2c(c1)OCO2 (stereo unspecified)
viability (%): 99
